# System: interferon (α) (IFN-α)
# assay method text: Cytokine induction in human cells: IFN-α secreted by PBMC into culture media (ELISA)
# Type: cell-based
# condition parameters: Table 11; human PBMC; median where tested in more than one experiment
quantity: Minimum Effective Concentration IFN

[[record]]
query_smiles = "COCCc1nc2c(N)nc3ccccc3c2n1CCCN"
quantity = "Minimum Effective Concentration IFN"
result = "0.04 µM"

[[record]]
query_smiles = "NCCCCn1c(CCO)nc2c(N)nc3ccccc3c21"
quantity = "Minimum Effective Concentration IFN"
result = "30 µM"

[[record]]
query_smiles = "CCOCc1nc2c(N)nc3ccccc3c2n1CCNC(=O)NC(C)C"
quantity = "Minimum Effective Concentration IFN"
result = "0.37 µM"

[[record]]
query_smiles = "Cc1nc2c(N)nc3ccccc3c2n1CCCNC(=O)C(C)C"
quantity = "Minimum Effective Concentration IFN"
result = "1.11 µM"

[[record]]
query_smiles = "Cc1ccc(C)c(S(=O)(=O)NCCCCn2c(CCO)nc3c(N)nc4ccccc4c32)c1"
quantity = "Minimum Effective Concentration IFN"
result = "10 µM"

[[record]]
query_smiles = "CCCc1nc2c(N)nc3ccccc3c2n1CCOCCN(C)S(C)(=O)=O"
quantity = "Minimum Effective Concentration IFN"
result = "0.37 µM"

[[record]]
query_smiles = "CCNC(=O)NCCn1c(CCO)nc2c(N)nc3ccccc3c21"
quantity = "Minimum Effective Concentration IFN"
result = "30 µM"

[[record]]
query_smiles = "CCNC(=O)NCCn1c(CCOC)nc2c(N)nc3ccccc3c21"
quantity = "Minimum Effective Concentration IFN"
result = "0.014 µM"

[[record]]
query_smiles = "Nc1nc2ccccc2c2c1nc(CCO)n2CCCCNC(=O)c1nccc2ccccc12"
quantity = "Minimum Effective Concentration IFN"
result = "0.12 µM"

[[record]]
query_smiles = "CCOCc1nc2c(N)nc3ccccc3c2n1CCCNC(=O)N1CCOCC1"
quantity = "Minimum Effective Concentration IFN"
result = "0.12 µM"

[[record]]
query_smiles = "COCCc1nc2c(N)nc3ccccc3c2n1CCCCNC(=O)c1cnc2ccccc2c1"
quantity = "Minimum Effective Concentration IFN"
result = "0.014 µM"

[[record]]
query_smiles = "CCCc1nc2c(N)nc3ccccc3c2n1CCCNC(=O)NC(C)C"
quantity = "Minimum Effective Concentration IFN"
result = "0.12 µM"

[[record]]
query_smiles = "COCCc1nc2c(N)nc3ccccc3c2n1CCCCNC(=O)N1CCOCC1"
quantity = "Minimum Effective Concentration IFN"
result = "0.014 µM"

[[record]]
query_smiles = "CCc1nc2c(N)nc3ccccc3c2n1CCOCCN(C)S(C)(=O)=O"
quantity = "Minimum Effective Concentration IFN"
result = "0.12 µM"

[[record]]
query_smiles = "CCCc1nc2c(N)nc3ccccc3c2n1CC(C)(C)NC(=O)NC(C)C"
quantity = "Minimum Effective Concentration IFN"
result = "1.11 µM"

[[record]]
query_smiles = "COCCc1nc2c(N)nc3ccccc3c2n1CCNS(C)(=O)=O"
quantity = "Minimum Effective Concentration IFN"
result = "0.014 µM"

[[record]]
query_smiles = "Cc1nc2c(N)nc3ccccc3c2n1CCCNC(=O)NC(C)C"
quantity = "Minimum Effective Concentration IFN"
result = "3.33 µM"

[[record]]
query_smiles = "CCOCc1nc2c(N)nc3ccccc3c2n1CCCNS(C)(=O)=O"
quantity = "Minimum Effective Concentration IFN"
result = "0.37 µM"

[[record]]
query_smiles = "CCOCc1nc2c(N)nc3ccccc3c2n1CCCCNS(C)(=O)=O"
quantity = "Minimum Effective Concentration IFN"
result = "0.04 µM"

[[record]]
query_smiles = "CCCc1nc2c(N)nc3ccccc3c2n1CCNS(C)(=O)=O"
quantity = "Minimum Effective Concentration IFN"
result = "30 µM"

[[record]]
query_smiles = "COCCc1nc2c(N)nc3ccccc3c2n1CCNC(=O)CC(C)C"
quantity = "Minimum Effective Concentration IFN"
result = "0.12 µM"

[[record]]
query_smiles = "Cc1nc2c(N)nc3ccccc3c2n1CC(C)(C)CNS(C)(=O)=O"
quantity = "Minimum Effective Concentration IFN"
result = "0.37 µM"

[[record]]
query_smiles = "CCCc1nc2c(N)nc3ccccc3c2n1CCCCCS(C)(=O)=O"
quantity = "Minimum Effective Concentration IFN"
result = "0.12 µM"

[[record]]
query_smiles = "CCc1nc2c(N)nc3ccccc3c2n1CCNS(C)(=O)=O"
quantity = "Minimum Effective Concentration IFN"
result = "0.12 µM"

[[record]]
query_smiles = "CCCc1nc2c(N)nc3ccccc3c2n1CC(C)(C)CNS(C)(=O)=O"
quantity = "Minimum Effective Concentration IFN"
result = "0.12 µM"

[[record]]
query_smiles = "COCCc1nc2c(N)nc3ccccc3c2n1CC(C)(C)CNC(=O)c1ccccc1"
quantity = "Minimum Effective Concentration IFN"
result = "0.014 µM"

[[record]]
query_smiles = "COCCc1nc2c(N)nc3ccccc3c2n1CCCCCCCCNC(=O)Nc1ccccc1"
quantity = "Minimum Effective Concentration IFN"
result = "0.014 µM"

[[record]]
query_smiles = "CCc1nc2c(N)nc3ccccc3c2n1CC(C)(C)CN"
quantity = "Minimum Effective Concentration IFN"
result = "0.04 µM"

[[record]]
query_smiles = "Nc1nc2ccccc2c2c1nc(CCO)n2CCCCNC(=O)c1cnc2ccccc2c1"
quantity = "Minimum Effective Concentration IFN"
result = "0.37 µM"

[[record]]
query_smiles = "COCCc1nc2c(N)nc3ccccc3c2n1CCCCNS(=O)(=O)c1ccc(F)cc1"
quantity = "Minimum Effective Concentration IFN"
result = "0.014 µM"

[[record]]
query_smiles = "Cc1nc2c(N)nc3ccccc3c2n1CCCNS(C)(=O)=O"
quantity = "Minimum Effective Concentration IFN"
result = "1.11 µM"

[[record]]
query_smiles = "Cc1nc2c(N)nc3ccccc3c2n1CCCCCS(C)(=O)=O"
quantity = "Minimum Effective Concentration IFN"
result = "0.37 µM"

[[record]]
query_smiles = "CCCCNC(=O)NCCCn1c(CCO)nc2c(N)nc3ccccc3c21"
quantity = "Minimum Effective Concentration IFN"
result = "1.11 µM"

[[record]]
query_smiles = "CCOCc1nc2c(N)nc3ccccc3c2n1CCCCNC(=O)N1CCOCC1"
quantity = "Minimum Effective Concentration IFN"
result = "0.12 µM"

[[record]]
query_smiles = "Cc1nc2c(N)nc3ccccc3c2n1CCOCCN(C)S(C)(=O)=O"
quantity = "Minimum Effective Concentration IFN"
result = "0.12 µM"

[[record]]
query_smiles = "COCCc1nc2c(N)nc3ccccc3c2n1CCCNC(=O)c1cc2ccccc2cn1"
quantity = "Minimum Effective Concentration IFN"
result = "0.12 µM"

[[record]]
query_smiles = "Cc1nc2c(N)nc3ccccc3c2n1CCNS(C)(=O)=O"
quantity = "Minimum Effective Concentration IFN"
result = "0.12 µM"

[[record]]
query_smiles = "CCc1nc2c(N)nc3ccccc3c2n1CCCCNS(C)(=O)=O"
quantity = "Minimum Effective Concentration IFN"
result = "0.04 µM"

